Reference for the values: ChEMBL document CHEMBL4043207

# experimental details: Half life in rat plasma at 0.2 mg/kg administered as iv cassette dose
# Assay type: ADME, organism-based
measured metric: half-life (h)
Write down the numeric answer in h and omit the unit.

Look up half-life: "Cc1ccc(OC2CCN(c3c(C#N)cnc4ccc(F)cc34)CC2)cn1" 1.7

----------
# experimental details: Clearance in dog plasma at 0.2 mg/kg administered as iv cassette dose
# Assay type: ADME, organism-based, Canis lupus familiaris
measured metric: clearance (mL/min/kg)
Use mL/min/kg as the unit, but write only the number.

# lookup: clearance of "Cc1ccc(OC2CCN(c3c(C#N)cnc4ccc(F)cc34)CC2)cn1" 41

----------
List of EC50 values.
# target or system: Muscarinic acetylcholine receptor M4 (Homo sapiens)
# experimental details: Positive allosteric modulation of human M4 receptor expressed in CHO cells co-expressing Gqi5 assessed as increase in acetylcholine-induced calcium mobilization
# Type: functional, cell-based
# condition description: read-out: EC50
Entry rule: numbers only, all in nM.

smi: Cc1ccc(OC2CCN(c3c(C#N)cnc4ccc(F)cc34)CC2)cn1
target or system: Muscarinic acetylcholine receptor M4 (Homo sapiens)
EC50 (nM): 197
//
smi: COc1ccccc1CNC(=O)C1CCN(c2c(C#N)cnc3ccc(F)cc23)CC1
target or system: Muscarinic acetylcholine receptor M4 (Homo sapiens)
EC50 (nM): 651
//
smi: N#Cc1cnc2ccc(F)cc2c1N1CCC(C(=O)N2CCc3ccccc3C2)CC1
target or system: Muscarinic acetylcholine receptor M4 (Homo sapiens)
EC50 (nM): 652
//
smi: N#Cc1cnc2ccc(F)cc2c1N1CCC(Oc2ccccc2)CC1
target or system: Muscarinic acetylcholine receptor M4 (Homo sapiens)
EC50 (nM): 3260

Attention now shifts to the item below.
What value of EC50 has been recorded for this entry: "Cn1nccc1NC(=O)C1CCN(c2c(C#N)cnc3ccc(F)cc23)CC1" 1760

----------
Property: Kp at 25 min; scope: individual molecules
# experimental details: Brain to plasma permeability coefficient, Kp of the compound in Sprague-Dawley rat at 0.1 to 0.2 mg/kg, iv administered as cassette dose after 25 mins
# Assay type: ADME, organism-based
# condition description: brain and plasma

Observe how each entry below is paired with its result.
smi: Cc1ccc(OC2CCN(c3c(C#N)cnc4ccc(F)cc34)CC2)cn1
Kp at 25 min: 5.25 to 5.3
--
smi: N#Cc1cnc2ccc(F)cc2c1N1CCC(C(=O)Nc2ccc(S(N)(=O)=O)cc2)CC1
Kp at 25 min: 0.16
--
smi: COc1ccc2c(c1)CCN(C(=O)C1CCN(c3c(C#N)cnc4ccc(F)cc34)CC1)C2
Kp at 25 min: 1.26

I have this molecule here, "Cc1ccc(OC2CCN(c3ncnc4ccc(F)cc34)CC2)cn1" , and I need its recorded Kp at 25 min. 1.16

----------
# experimental details: Fraction unbound in rat plasma
# Format: ADME, cell-free
Would you mind labelling by fraction unbound? At or over 0.02 is label 1, under is label 0.

Worked set:
smi: Cc1ccc(OC2CCN(c3ncnc4ccc(F)cc34)CC2)cn1
class name: label 0
--
smi: Cc1ccc(OC2CCN(c3c(C#N)cnc4ccc(F)cc34)CC2)cn1
class name: label 1
--
smi: COc1ccc2c(c1)CCN(C(=O)C1CCN(c3c(C#N)cnc4ccc(F)cc34)CC1)C2
class name: label 0
--
smi: N#Cc1cnc2ccc(F)cc2c1N1CCC(C(=O)Nc2ccc(S(N)(=O)=O)cc2)CC1
class name: label 0

Below: the item to evaluate.
Is fraction unbound at least 0.02? Consider "N#Cc1cnc2ccc(F)cc2c1N1CCC(C(=O)NCc2ccccc2)CC1" label 1

----------
# target or system: Muscarinic acetylcholine receptor M4 (Homo sapiens, UniProt P08173)
# experimental details: Positive allosteric modulation of human M4 receptor expressed in CHO cells co-expressing Gqi5 assessed as increase in acetylcholine-induced calcium mobilization
# Format: functional, cell-based
# condition description: read-out: EC50
measured metric: pEC50
For clarity, pEC50 is expressed as the negative log10 of concentration in mol/L.

The cases that follow already have their pEC50 on record.
smi: Cc1ccc(OC2CCN(c3c(C#N)cnc4ccc(Cl)cc34)CC2)cn1
pEC50: 6.04
--
smi: N#Cc1cnc2ccc(F)cc2c1N1CCC(C(=O)Nc2ccccn2)CC1
pEC50: 6.04

Kindly consider the entry below.
Report pEC50 for "Cc1ccc(OC2CCN(c3ccnc4ccc(F)cc34)CC2)cn1" please. 5.66

----------
Catalogue of fraction unbound values
# experimental details: Fraction unbound in rat brain
# Type: ADME, tissue-based
Please reply with the number alone, leaving off any unit.

Check out these entries, answers already filled in.
smi: COc1ccc2c(c1)CCN(C(=O)C1CCN(c3c(C#N)cnc4ccc(F)cc34)CC1)C2
reported value: 0.007

smi: Cc1ccc(OC2CCN(c3c(C#N)cnc4ccc(F)cc34)CC2)cn1
reported value: 0.014

smi: N#Cc1cnc2ccc(F)cc2c1N1CCC(C(=O)Nc2ccc(S(N)(=O)=O)cc2)CC1
reported value: 0.01

Let's switch to this molecule now.
Look up fraction unbound: "Cc1ccc(OC2CCN(c3ncnc4ccc(F)cc34)CC2)cn1" 0.007

----------
# experimental details: Ratio of unbound concentration in brain to plasma in Sprague-Dawley rat at 0.1 to 0.2 mg/kg, iv administered as cassette dose after 25 mins
# Format: ADME, organism-based
# condition description: brain and plasma, read-out: K(p,uu,brain)
Below is a list of entries, each paired with its recorded Kp uu at 25 min value.

smi: Cc1ccc(OC2CCN(c3ncnc4ccc(F)cc34)CC2)cn1
Kp uu at 25 min: 0.74
//
smi: N#Cc1cnc2ccc(F)cc2c1N1CCC(C(=O)Nc2ccc(S(N)(=O)=O)cc2)CC1
Kp uu at 25 min: 0.1
//
smi: COc1ccc2c(c1)CCN(C(=O)C1CCN(c3c(C#N)cnc4ccc(F)cc34)CC1)C2
Kp uu at 25 min: 0.68

// below: Kp uu at 25 min requested for another molecule
What Kp uu at 25 min value was documented for this molecule, "Cc1ccc(OC2CCN(c3c(C#N)cnc4ccc(F)cc34)CC2)cn1" ? 2.37 to 2.4

----------
# experimental details: Apparent permeability in MDCK-MDR1 cells
# Type: ADME, cell-based, Canis lupus familiaris
# condition description: dog
measured metric: Papp (×10⁻⁶ cm/s)
Entry rule: numbers only, all in ×10⁻⁶ cm/s.

Requested field: Papp. Item: "Cc1ccc(OC2CCN(c3c(C#N)cnc4ccc(F)cc34)CC2)cn1" 28

----------
# experimental details: Clearance in rat hepatocytes
# Type: ADME, cell-based, Hepatocyte
Mark Fulfilled for reported CLhep predicted of 60 mL/min/kg or greater; mark Not fulfilled for anything smaller.

Illustrative cases are given below, each with its answer.
smi: Cc1ccc(OC2CCN(c3c(C#N)cnc4ccc(F)cc34)CC2)cn1
class name: Not fulfilled
--
smi: N#Cc1cnc2ccc(F)cc2c1N1CCC(C(=O)Nc2ccc(S(N)(=O)=O)cc2)CC1
class name: Not fulfilled
--
smi: COc1ccc2c(c1)CCN(C(=O)C1CCN(c3c(C#N)cnc4ccc(F)cc34)CC1)C2
class name: Fulfilled

Kindly determine if CLhep predicted recorded for "Cc1ccc(OC2CCN(c3ncnc4ccc(F)cc34)CC2)cn1" is above or exactly 60 mL/min/kg. Fulfilled

----------
Entries and their EC50 values follow.
# target or system: Muscarinic acetylcholine receptor M4 (Homo sapiens)
# Sequence (P08173 whole entry): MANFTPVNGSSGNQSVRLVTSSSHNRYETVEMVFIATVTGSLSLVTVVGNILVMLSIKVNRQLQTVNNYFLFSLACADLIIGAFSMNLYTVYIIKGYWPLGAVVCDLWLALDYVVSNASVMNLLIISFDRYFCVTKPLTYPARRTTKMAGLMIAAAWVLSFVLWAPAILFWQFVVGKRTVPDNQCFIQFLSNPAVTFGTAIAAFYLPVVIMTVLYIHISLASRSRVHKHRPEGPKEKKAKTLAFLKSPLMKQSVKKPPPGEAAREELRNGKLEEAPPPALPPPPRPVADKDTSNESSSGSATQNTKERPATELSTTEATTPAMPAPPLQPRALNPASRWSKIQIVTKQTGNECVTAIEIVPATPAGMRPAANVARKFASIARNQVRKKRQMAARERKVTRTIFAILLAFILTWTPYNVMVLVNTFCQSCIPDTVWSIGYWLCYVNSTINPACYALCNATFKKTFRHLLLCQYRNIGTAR
# experimental details: Positive allosteric modulation of human M4 receptor expressed in CHO cells co-expressing Gqi5 assessed as increase in acetylcholine-induced calcium mobilization
# Assay type: functional, cell-based
# condition description: read-out: EC50
# value in nM; strip the unit string

Use the examples below as a reference point.
smi: N#Cc1cnc2ccc(F)cc2c1N1CCC(Oc2ccc(Cl)nc2)CC1
unit info: nM
EC50: 577
--
smi: COc1ccc2c(c1)CCN(C(=O)C1CCN(c3c(C#N)cnc4ccc(F)cc34)CC1)C2
unit info: nM
EC50: 648
--
smi: N#Cc1cnc2ccc(F)cc2c1N1CCC(Oc2cccnc2)CC1
unit info: nM
EC50: 1300
--
smi: N#Cc1cnc2ccc(F)cc2c1N1CCC(C(=O)N2CCSCC2)CC1
unit info: nM
EC50: 1410
--
smi: N#Cc1cnc2ccc(F)cc2c1N1CCC(C(=O)N2CCOCC2)CC1
unit info: nM
EC50: 6440
--
smi: Cc1ccc(OC2CCN(c3c(C#N)cnc4ccc(F)cc34)CC2)c(F)n1
unit info: nM
EC50: 5640
--
smi: N#Cc1cnc2ccc(F)cc2c1N1CCC(C(=O)Nc2cccnc2)CC1
unit info: nM
EC50: 619
--
smi: COc1ccc(CNC(=O)C2CCN(c3c(C#N)cnc4ccc(F)cc34)CC2)cc1F
unit info: nM
EC50: 1090

Record lookup: for Muscarinic acetylcholine receptor M4 (Homo sapiens), what EC50 belongs to "Cc1ccc(OC2CCN(c3c(C#N)cnc4c(C)cc(F)cc34)CC2)cn1" ? 2070

Lookup: EC50 / Muscarinic acetylcholine receptor M4 (Homo sapiens) / "COc1ccc(CNC(=O)C2CCN(c3c(C#N)cnc4ccc(F)cc34)CC2)cc1" 664
